biological target: TDP-43 (Homo sapiens, UniProt Q13148 1-414); assay: RNA Bind-n-Seq with designed 260-mer pool; 25 mM Tris-HCl, 150 mM KCl, 3 mM MgCl2, BSA (printed 500 mg/mL), 20 units/mL SUPERase IN; pH not stated; 500 nM RNA pool, 1 h, 4 C; TDP-43 5, 50, 500 nM; high values mean tight binding; conditions: protein: recombinant; tags: SBP (GST cleaved off with PreScission; pGEX-GST-SBP)
Sequence (Q13148 whole entry): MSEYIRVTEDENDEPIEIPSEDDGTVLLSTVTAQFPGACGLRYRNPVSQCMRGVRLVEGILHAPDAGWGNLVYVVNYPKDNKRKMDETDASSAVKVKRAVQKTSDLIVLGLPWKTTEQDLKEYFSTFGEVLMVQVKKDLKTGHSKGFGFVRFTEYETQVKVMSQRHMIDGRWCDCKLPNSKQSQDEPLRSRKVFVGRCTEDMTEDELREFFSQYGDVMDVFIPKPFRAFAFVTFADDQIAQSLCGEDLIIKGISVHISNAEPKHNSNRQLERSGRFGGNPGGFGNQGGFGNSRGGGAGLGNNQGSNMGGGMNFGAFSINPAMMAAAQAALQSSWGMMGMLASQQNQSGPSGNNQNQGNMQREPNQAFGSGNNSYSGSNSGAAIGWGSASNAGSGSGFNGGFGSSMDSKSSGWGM
The full ranking holds about 9,900 sequences; the median of “r (bound/input frequency ratio)” is about 0.7, and the highest 2% start at about 6.5. The sample as a whole holds a higher share of the highest values than the screen did.
assay endpoint: binding signal

Bench note: what binding signal did ENSMUSG00000032194.281|Kank2 (ssRNA) RNA: GGGAGUUCUACAGUCCGACGAUCGCUUCGAUAUCCGCAUGCUAAUGAAUGGAUGGAUGGACAGGUGGGUGGAUGGAUGGGUGGACGGAUGAGUGUGGGGUGGGUGGAUGGAUAAAUGAGCAAUGGAUGAGAAACUGGGUUGGCUGGUGGGUAGAUGUCAUGAUGGAGUCUUUGCACGUGUAUGAAACAGAAAACCAAACUUCAGGACAGACAGCUGCUGGUGUCUCUGGAUGCUCACAGCCUAGGGCACAUUUGAAAGGUCGUGCUCUGAGCUGAGCCCUGAGUUCCAGCCUUGUAGCCAGCACUCUUGCGGUCGCACUAGUGUGGAAUUCUCGGGUGUCAAGG show?
6.24 R (bound/input frequency ratio)

Bench note: what binding signal did ENSMUSG00000032194.228|Kank2 (ssRNA) RNA: GGGAGUUCUACAGUCCGACGAUCGCUUCGAUAUCCGCAUGCUAGUCCUCUCAAGUCUCCCUGUCGUAUCCAGAUCACAGCUGAACCCACUGGGCCUUGGCGCCAAACCUCAGCAGGGCAGCAUUGAGACUCAUGGACUAAAGGAAAGUGUUCACUCUUCUAGACAAGUGGGUCUCUUGGUUUGAUGGAGUCUUACUCCGCUUGAGUUUUGUAGAAGGGGUUUGUCUAAGGCAUAGAGGCUUGGUUGGCAUAAGAAAAUAAGAUGGACAGAUGGAUGGGUGGAUGGAUGGAUGGCUGAUUGAGUCUCUUGCGGUCGCACUAGUGUGGAAUUCUCGGGUGUCAAGG show?
7.26 R (bound/input frequency ratio)

Bench note: what binding signal did ENSMUSG00000029028.198|Lrrc47 (ssRNA) RNA: GGGAGUUCUACAGUCCGACGAUCGCUUCGAUAUCCGCAUGCUAUGUGUACGCAUCUGUACCAGCACACAGCUGCCAUCCCUCGAGCCACAGUGCCUGGUCCUAAGGACCCAGCAGCUGCACAGAGGACUUGGUGGCCCCGUGCCUUGCCAUCUGGCUGAGAAGAGAACCAGACCCUCAGCCUUCCCCCUCGACACCUUCUCGUUGGUGACCUCUGACCUUAAAGGACCAUUUCUACCUUCUGUAAAAGAACACCUGUUUGGGGUUGCGUGCGGCUUUCAUCCUAAGGCCGUGCGAGAGCCGUUCUCUUGCGGUCGCACUAGUGUGGAAUUCUCGGGUGUCAAGG show?
0.346 R (bound/input frequency ratio)

Bench note: what binding signal did ENSMUSG00000061578.309|Ksr2 (ssRNA) RNA: GGGAGUUCUACAGUCCGACGAUCGCUUCGAUAUCCGCAUGCUAAAGUAAGAGAGGAGAGAGCCAGGGAGGGCUGAAGCUCUGGGACCCUGAAGUGUCCCCCGGGAACUGGGACUCACUCAUCUUCUCCUGUUUGUAGCUCAAUGACCCAGUGGGUCACAGUUCUAGGCGCUCCAAGGAAGCCAGGGGAGGGGGACUCCUCAGGAAGGAGUGACCAGUCACCUGCCUCCCAGGGUUCUGCCUUGCCCUUAAGCUAGGGUCCUUCAAGCAUCCACAGACUUAGAGUGUGGUGGUAACAUGCUUGUCUCUUGCGGUCGCACUAGUGUGGAAUUCUCGGGUGUCAAGG show?
1.33 R (bound/input frequency ratio)

Bench note: what binding signal did ENSMUSG00000032194.289|Kank2 (ssRNA) RNA: GGGAGUUCUACAGUCCGACGAUCGCUUCGAUAUCCGCAUGCUAGUGUGGGGUGGGUGGAUGGAUAAAUGAGCAAUGGAUGAGAAACUGGGUUGGCUGGUGGGUAGAUGUCAUGAUGGAGUCUUUGCACGUGUAUGAAACAGAAAACCAAACUUCAGGACAGACAGCUGCUGGUGUCUCUGGAUGCUCACAGCCUAGGGCACAUUUGAAAGGUCGUGCUCUGAGCUGAGCCCUGAGUUCCAGCCUUGUAGCCAGCAAGGGAGUUUAUUUAAGGUUCUGGAAGCAUCAGCUAUGACCCAAAGCACCUCUUGCGGUCGCACUAGUGUGGAAUUCUCGGGUGUCAAGG show?
3.69 R (bound/input frequency ratio)

Bench note: what binding signal did ENSMUSG00000028439.220|Fam219a (ssRNA) RNA: GGGAGUUCUACAGUCCGACGAUCGCUUCGAUAUCCGCAUGCUAUCCCUGAGCUCCUAAGCAAUUCCCAGGCUUCUCUAGGGCUUCAGUUCUCACAACUGGAAAAUAAAGAGUAGCUGACAUCACCGACAGAGUCUUUUCAUACCAGAAGGAAUUUCUUCACAGGAGUUUCUGCAAAAGACUAUGACAUCUGUGUGUCUGUGGUCUCACGAGGUACCUGGAGGUGUAUGUGCACGGACAUGGGAAGUACGUGAAGAUUUAUUUCGGGAAAAGUGGUGUGUGUGUAGCUGUACUGGGUGUCAUGUCUCUUGCGGUCGCACUAGUGUGGAAUUCUCGGGUGUCAAGG show?
6.53 R (bound/input frequency ratio)

Bench note: what binding signal did ENSMUSG00000032194.288|Kank2 (ssRNA) RNA: GGGAGUUCUACAGUCCGACGAUCGCUUCGAUAUCCGCAUGCUAGGAUGAGUGUGGGGUGGGUGGAUGGAUAAAUGAGCAAUGGAUGAGAAACUGGGUUGGCUGGUGGGUAGAUGUCAUGAUGGAGUCUUUGCACGUGUAUGAAACAGAAAACCAAACUUCAGGACAGACAGCUGCUGGUGUCUCUGGAUGCUCACAGCCUAGGGCACAUUUGAAAGGUCGUGCUCUGAGCUGAGCCCUGAGUUCCAGCCUUGUAGCCAGCAAGGGAGUUUAUUUAAGGUUCUGGAAGCAUCAGCUAUGACCCACUCUUGCGGUCGCACUAGUGUGGAAUUCUCGGGUGUCAAGG show?
6.68 R (bound/input frequency ratio)

These entries and their values trace back to paper PMC12864922.
